Assay procedure: Vapor pressure of solvents for negative tone development and rinsing
Test settings: value at 20° C.
Measured metric: Vapor Pressure (kPa)

A = CCCCCCCCCCCC
B = CC(C)CCO
C = CCCCCCCCCC
D = CC(=O)CC(C)C
## Input Reorder the list above by recorded Vapor Pressure in ascending order. Form field (ranking): labels in requested order.
## Output A, C, B, D

I = CCCCC(C)=O
II = CC(=O)OCCC(C)C [Isoamyl acetate]
## Input When the recorded Vapor Pressure values are compared, which is smaller: that of I or that of II ? // return label of chosen record
## Output I

a = CCCOCCC
b = CCCCCCCO
## Input When the recorded Vapor Pressure values are compared, which is smaller: that of a or that of b ? // return label of chosen record
## Output b

* * *

Assay procedure: Vapor pressure of solvents for negative tone development and rinsing
Test settings: value at 20° C.
Measured metric: Vapor Pressure (kPa)

>  <Compound>
CCCCCC(C)O (stereo not shown)

>  <Result number>
0.133

$$$$
>  <Compound>
CCCCOC(C)=O [Butyl acetate]

>  <Result number>
1.2

$$$$
>  <Compound>
CCCCCCO

>  <Result number>
0.13

$$$$
>  <Compound>
CCC(C)=O

>  <Result number>
10.5

$$$$
